tested.on: CDK4-CYCLIND1 (Homo sapiens)
Sequence (P11802 whole entry): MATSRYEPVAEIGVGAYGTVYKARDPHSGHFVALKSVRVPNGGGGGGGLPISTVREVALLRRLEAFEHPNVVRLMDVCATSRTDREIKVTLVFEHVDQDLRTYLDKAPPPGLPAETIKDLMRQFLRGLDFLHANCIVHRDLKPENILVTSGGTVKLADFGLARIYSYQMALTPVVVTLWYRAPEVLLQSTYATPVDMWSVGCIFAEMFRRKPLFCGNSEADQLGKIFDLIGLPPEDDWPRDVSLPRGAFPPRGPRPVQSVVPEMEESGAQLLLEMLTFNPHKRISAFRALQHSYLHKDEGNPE
Sequence (P24385 whole entry partner): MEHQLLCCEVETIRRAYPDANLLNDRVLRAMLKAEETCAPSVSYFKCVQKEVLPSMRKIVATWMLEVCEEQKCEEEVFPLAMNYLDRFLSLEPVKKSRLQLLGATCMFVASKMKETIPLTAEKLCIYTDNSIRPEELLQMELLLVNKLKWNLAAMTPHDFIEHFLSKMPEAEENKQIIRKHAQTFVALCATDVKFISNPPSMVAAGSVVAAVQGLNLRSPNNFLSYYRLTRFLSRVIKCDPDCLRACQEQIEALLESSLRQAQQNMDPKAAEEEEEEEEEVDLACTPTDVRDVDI
assay.comment: Microfluidic LabChip kinase inhibition assay, CDK4-CyclinD1
experimental.parameters: CDK4 IC50 (μM), Table 2; 200 μM ATP, 1 nM enzyme
value.kind: log10 IC50 (log10 of the value in µM)
Plainly stated, the numbers are log10 of IC50 given in µM.

Worked cases, answers included:
Item CN1CCN(c2ccc(Nc3ncc4c(n3)N(C3CCCC3)C3(CC(=O)NC3=O)C4)nc2)CC1 (stereo not drawn) [Compound C75] ; assay system CDK4-CYCLIND1 (Homo sapiens); log10 IC50 reported as -1.69

Item CC(C)N1CCN(c2ccc(Nc3ncc4c(n3)N(C3CCCC3)C3(CCN(Cc5ccccc5)C3=O)C4)nc2)CC1 (stereo not drawn) [Compound C23] ; assay system CDK4-CYCLIND1 (Homo sapiens); log10 IC50 reported as 1.25

Item O=C1NCCC12Cc1cnc(Nc3ccc(N4CCNCC4)cc3)nc1N2C1CCCC1 (stereo not drawn) [Compound C43] ; assay system CDK4-CYCLIND1 (Homo sapiens); log10 IC50 reported as -1.20

---
Item CC(C)N1CCN(c2ccc(Nc3ncc4c(n3)N(C3CCCC3)C3(CC(=O)N(C)C3=O)C4)nc2)CC1 (stereo not drawn) [Compound C67] ; assay system CDK4-CYCLIND1 (Homo sapiens); log10 IC50 reported as 1.43

Item O=C1NCCC12Cc1cnc(Nc3ccc(N4CCNCC4)c(F)c3)nc1N2C1CCCC1 (stereo not drawn) [Compound C47] ; assay system CDK4-CYCLIND1 (Homo sapiens); log10 IC50 reported as -1.50

Item COc1ccc(CN2CCC3(Cc4cnc(Nc5cc(C(F)(F)F)c(N6CCNCC6)cn5)nc4N3C3CCCC3)C2=O)cc1 (stereo not drawn) [Compound C16] ; assay system CDK4-CYCLIND1 (Homo sapiens); log10 IC50 reported as 1.12

Item CN1C(=O)CC2(Cc3cnc(Nc4ccc(N5CCNCC5)cn4)nc3N2C2CCCC2)C1=O (stereo not drawn) [Compound C65] ; assay system CDK4-CYCLIND1 (Homo sapiens); log10 IC50 reported as 1.09

Item CN1CCC2(Cc3cnc(Nc4ccc(N5CCNCC5)cc4)nc3N2C2CCCC2)C1=O (stereo not drawn) [Compound C2] ; assay system CDK4-CYCLIND1 (Homo sapiens); log10 IC50 reported as 0.71

Item O=C1NCCC12C(=O)N(C1CCCC1)c1nc(Nc3ccc(N4CCNCC4)cn3)ncc12 (stereo not drawn) [Compound C99] ; assay system CDK4-CYCLIND1 (Homo sapiens); log10 IC50 reported as 1.77

Item COc1ccc(CN2CCC3(Cc4cnc(Nc5ccc(N6CCN(C)CC6)cc5)nc4N3C3CCCC3)C2=O)cc1 (stereo not drawn) [Compound C12] ; assay system CDK4-CYCLIND1 (Homo sapiens); log10 IC50 reported as 0.29

Item O=C1CC2(Cc3cnc(Nc4ccc(C5=CCNCC5)cn4)nc3N2C2CCCC2)C(=O)N1 (stereo not drawn) [Compound C93] ; assay system CDK4-CYCLIND1 (Homo sapiens); log10 IC50 reported as 0.84

* * *

tested.on: CDK1/B (Homo sapiens, UniProt P06493)
Sequence (P06493 whole entry): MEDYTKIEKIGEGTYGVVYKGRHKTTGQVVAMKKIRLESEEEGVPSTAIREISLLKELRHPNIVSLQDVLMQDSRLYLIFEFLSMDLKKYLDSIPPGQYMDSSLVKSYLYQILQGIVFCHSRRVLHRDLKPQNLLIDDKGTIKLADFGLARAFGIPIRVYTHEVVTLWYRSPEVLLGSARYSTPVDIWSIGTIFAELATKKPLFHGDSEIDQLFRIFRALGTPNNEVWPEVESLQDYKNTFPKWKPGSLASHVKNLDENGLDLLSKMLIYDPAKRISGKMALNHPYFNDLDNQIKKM
Sequence (P14635 whole entry partner): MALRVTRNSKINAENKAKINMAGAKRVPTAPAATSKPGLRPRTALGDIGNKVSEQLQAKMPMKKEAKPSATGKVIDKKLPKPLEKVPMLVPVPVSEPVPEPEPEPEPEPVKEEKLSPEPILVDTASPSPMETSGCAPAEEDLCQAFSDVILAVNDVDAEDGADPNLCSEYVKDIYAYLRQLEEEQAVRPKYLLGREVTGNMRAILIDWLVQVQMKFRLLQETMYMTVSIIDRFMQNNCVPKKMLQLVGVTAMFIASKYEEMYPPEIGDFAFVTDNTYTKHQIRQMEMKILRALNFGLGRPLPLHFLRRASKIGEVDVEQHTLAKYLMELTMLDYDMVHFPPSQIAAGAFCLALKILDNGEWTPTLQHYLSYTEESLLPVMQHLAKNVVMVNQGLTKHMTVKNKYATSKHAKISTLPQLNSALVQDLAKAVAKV
assay.comment: Additional inhibition assay, CDK1/B
Format: biochemical
experimental.parameters: Table 3a
As shown below, each of these compounds has a reported IC50 value.
Quick note: give the figure in µM, leave out the unit.

In plain terms, CN1CCN(c2ccc(Nc3ncc4c(n3)N(C3CCCC3)C3(CCNC3=O)C4)cc2)CC1 (stereo not shown) has a documented IC50 of 9.11

In plain terms, CN1CCN(c2ccc(Nc3ncc4c(n3)N(C3CCCC3)C3(CC(=O)NC3=O)C4)cc2)CC1 (single isomer, unassigned) [Compound C136] has a documented IC50 of 1.27

In plain terms, CN(C)[C@@H]1CCN(c2ccc(Nc3ncc4c(n3)N(C3CCCC3)C3(CCNC3=O)C4)cc2F)C1 (stereo partly shown) has a documented IC50 of 7.58

Now for another entry.
In plain terms, CC(C)N1CCN(c2ccc(Nc3ncc4c(n3)N(C3CCCC3)C3(CCNC3=O)C4)cc2F)CC1 (stereo not shown) has a documented IC50 of 3.82

* * *

tested.on: CDK6-CYCLIND3 (Homo sapiens, UniProt Q00534)
Construct: purchased Carna
Sequence (Q00534 whole entry): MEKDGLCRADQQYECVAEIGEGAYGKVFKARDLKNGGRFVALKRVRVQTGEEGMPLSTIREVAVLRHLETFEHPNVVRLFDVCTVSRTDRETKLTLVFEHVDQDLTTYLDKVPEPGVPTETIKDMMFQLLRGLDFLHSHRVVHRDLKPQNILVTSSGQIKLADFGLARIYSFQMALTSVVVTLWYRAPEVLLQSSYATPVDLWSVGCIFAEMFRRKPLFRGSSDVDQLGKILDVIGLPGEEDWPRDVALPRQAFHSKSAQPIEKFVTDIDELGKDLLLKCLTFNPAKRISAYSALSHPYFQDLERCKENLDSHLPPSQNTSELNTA
Sequence (P30281 whole entry partner): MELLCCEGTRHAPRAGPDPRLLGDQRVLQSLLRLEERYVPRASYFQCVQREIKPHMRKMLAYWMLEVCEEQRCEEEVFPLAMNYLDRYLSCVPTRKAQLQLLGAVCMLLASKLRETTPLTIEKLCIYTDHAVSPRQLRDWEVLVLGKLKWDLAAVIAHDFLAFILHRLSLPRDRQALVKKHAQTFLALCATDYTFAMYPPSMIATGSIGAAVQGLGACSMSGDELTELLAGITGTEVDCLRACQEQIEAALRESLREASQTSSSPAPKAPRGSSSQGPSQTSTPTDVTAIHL
assay.comment: Microfluidic LabChip kinase inhibition assay, CDK6-CyclinD3
Format: biochemical
experimental.parameters: CDK6 CyclinD3 IC50 (μM), Table 3a; 300 μM ATP
value.kind: IC50 (µM)
Quick note: give the figure in µM, leave out the unit.

In plain terms, CN1CCN(c2ccc(Nc3ncc4c(n3)N(C3CCCC3)C3(CCNC3=O)C4)cc2F)CC1 (single isomer, unassigned) has a documented IC50 of 0.258

* * *

tested.on: CDK4-CYCLIND1 (Homo sapiens)
assay.comment: Microfluidic LabChip kinase inhibition assay, CDK4-CyclinD1
experimental.parameters: CDK4 CyclinD1 IC50 (μM), Table 3a; 200 μM ATP; second value in parentheses on the next line
value.kind: IC50 (µM)
Quick note: give the figure in µM, leave out the unit.

Worked cases, answers included:
Item COc1cc(Nc2ncc3c(n2)N(C2CCCC2)C2(CCNC2=O)C3)ccc1N1CCN(C)CC1 (stereo not shown) [Compound C123] ; assay system CDK4-CYCLIND1 (Homo sapiens); IC50 reported as 0.955

Item O=C1NCCC12Cc1cnc(Nc3ccc(OCCN4CCCC4)nc3)nc1N2C1CCCC1 (stereo not shown) [Compound C170] ; assay system CDK4-CYCLIND1 (Homo sapiens); IC50 reported as 0.233

---
Item CN1CCN(c2ccc(Nc3ncc4c(n3)N(C3CCCCC3)C3(CCNC3=O)C4)cc2)CC1 (stereo not shown) [Compound C199] ; assay system CDK4-CYCLIND1 (Homo sapiens); IC50 reported as 0.0332

Item CN1CCC(c2ccc(Nc3ncc4c(n3)N(C3CCCC3)C3(CCNC3=O)C4)cc2)CC1 (stereo not shown) [Compound C164] ; assay system CDK4-CYCLIND1 (Homo sapiens); IC50 reported as 0.167

* * *

tested.on: CDK6-CYCLIND3 (Homo sapiens)
Construct: purchased Carna
assay.comment: Microfluidic LabChip kinase inhibition assay, CDK6-CyclinD3
Assay type: biochemical
experimental.parameters: Table 3a; 300 μM ATP; read-out: CDK6 CyclinD3 IC50
value.kind: pIC50
pIC50 field: float, defined as -log10 of concentration (mol/L).

In plain terms, CN1CCN(c2ccc(Nc3ncc4c(n3)N(C3CCCC3)C3(CCNC3=O)C4)cc2F)CC1 (single isomer, unassigned) [Compound C205] has a documented pIC50 of 6.75

In plain terms, CN1CCN(c2ccc(Nc3ncc4c(n3)N(C3CCCCC3)C3(CCNC3=O)C4)cc2)CC1 (stereo not shown) has a documented pIC50 of 6.99

---
In plain terms, CN1CCN(c2ccc(Nc3ncc4c(n3)N(C3CCCCC3)C3(CCNC3=O)C4)cc2F)CC1 (stereo not shown) has a documented pIC50 of 7.16

In plain terms, CN1CCN(c2ccc(Nc3ncc4c(n3)N(C3CCCC3)C3(CCNC3=O)C4)cc2F)CC1 (single isomer, unassigned) [Compound C206] has a documented pIC50 of 4.80

* * *

tested.on: CDK2-CYCLINA (Homo sapiens, UniProt P24941)
Construct: purchased Millipore
assay.comment: Microfluidic LabChip kinase inhibition assay, CDK2-CyclinA
Type: biochemical
experimental.parameters: Table 3a; 50 μM ATP
As shown below, each of these compounds has a reported IC50 value.

In plain terms, O=C1NCCC12Cc1cnc(Nc3ccc(OCCN4CCCC4)nc3)nc1N2C1CCCC1 (stereo not shown) has a documented IC50 of > 10 µM

In plain terms, CN1CCN(c2ccc(Nc3ncc4c(n3)N(C3CCCC3)C3(CCNC3=O)C4)cc2F)CC1 (single isomer, unassigned) has a documented IC50 of 2.1 µM

In plain terms, COc1cc(Nc2ncc3c(n2)N(C2CCCC2)C2(CCNC2=O)C3)ccc1N1CCN(C)CC1 (stereo not shown) has a documented IC50 of > 10 µM

---
In plain terms, CN(C)CCOc1ccc(Nc2ncc3c(n2)N(C2CCCC2)C2(CCNC2=O)C3)nc1 (stereo not shown) has a documented IC50 of > 10 µM

In plain terms, O=C1NCCC12Cc1cnc(Nc3ccc(N4CCC(N5CCOCC5)CC4)nc3)nc1N2C1CCCC1 (stereo not shown) has a documented IC50 of > 10 µM

In plain terms, CN(C)CCOc1ccc(Nc2ncc3c(n2)N(C2CCCC2)C2(CCNC2=O)C3)cc1 (stereo not shown) has a documented IC50 of > 10 µM

In plain terms, CN1CCN(c2ccc(Nc3ncc4c(n3)N(C3CCCC3)C3(CCNC3=O)C4)cc2)CC1 (stereo not shown) has a documented IC50 of > 10 µM

* * *

tested.on: CDK6-CYCLIND3 (Homo sapiens, UniProt Q00534)
Construct: purchased Carna
assay.comment: Microfluidic LabChip kinase inhibition assay, CDK6-CyclinD3
Type: biochemical
experimental.parameters: Table 2; 300 μM ATP, 2 nM enzyme; read-out: CDK6 IC50
value.kind: log10(IC50) (log10 of the value in µM)
Plainly stated, the numbers are log10 of IC50 given in µM.

Worked cases, answers included:
In plain terms, CC(C)N1CCN(c2ccc(Nc3ncc4c(n3)N(C3CCCC3)C3(CCNC3=O)C4)cc2)CC1 (stereo not shown) has a documented log10(IC50) of -0.40

In plain terms, O=C1CC2(Cc3cnc(Nc4ccc(N5CCOCC5)c(F)c4)nc3N2C2CCCC2)C(=O)N1 (stereo not shown) has a documented log10(IC50) of -0.34

In plain terms, CN1CCN(c2ccc(Nc3ncc4c(n3)N(C3CCCC3)C3(CCN(C)C3=O)C4)cc2)CC1 (stereo not shown) has a documented log10(IC50) of 1.28

In plain terms, O=C1NCCC12Cc1cnc(Nc3ccc(N4CCNCC4)cc3F)nc1N2C1CCCC1 (stereo not shown) has a documented log10(IC50) of 0.62

In plain terms, CC(C)N1CC=C(c2ccc(Nc3ncc4c(n3)N(C3CCCC3)C3(CCNC3=O)C4)nc2)CC1 (stereo not shown) has a documented log10(IC50) of -0.02

In plain terms, CN1C(=O)CC2(Cc3cnc(Nc4ccc(N5CCNCC5)cn4)nc3N2C2CCCC2)C1=O (stereo not shown) has a documented log10(IC50) of 1.19

In plain terms, O=C1NCCC12Cc1cnc(Nc3ccc(N4CCC(N5CCOCC5)CC4)c(F)c3)nc1N2C1CCCC1 (stereo not shown) has a documented log10(IC50) of -0.54

In plain terms, CN1CCN(c2ccc(Nc3ncc4c(n3)N(C3CCCC3)C3(CC(=O)NC3=O)C4)cc2F)CC1 (stereo not shown) has a documented log10(IC50) of -1.13

In plain terms, CN(C)CCOc1ccc(Nc2ncc3c(n2)N(C2CCCC2)C2(CCNC2=O)C3)cn1 (stereo not shown) has a documented log10(IC50) of -0.10

In plain terms, CN1CCN(c2ccc(Nc3ncc4c(n3)N(C3CCCC3)C3(CC(=O)NC3=O)C4)nc2)CC1 (stereo not shown) has a documented log10(IC50) of -1.46

---
In plain terms, CN1C(=O)CC2(Cc3cnc(Nc4ccc(N5CCNCC5)cc4)nc3N2C2CCCC2)C1=O (stereo not shown) has a documented log10(IC50) of 0.82

In plain terms, Cc1cc(Nc2ncc3c(n2)N(C2CCCC2)C2(CCNC2=O)C3)ccc1N1CCN(C(C)C)CC1 (stereo not shown) has a documented log10(IC50) of -0.05

In plain terms, CN1CCN(c2ccc(Nc3ncc4c(n3)N(C3CCCC3)C3(CC(=O)NC3=O)C4)c(F)c2)CC1 (stereo not shown) has a documented log10(IC50) of 1.89

In plain terms, CN1CCN(c2ccc(Nc3ncc4c(n3)N(C3CCCC3)C(=O)C43CCNC3=O)nc2)CC1 (stereo not shown) has a documented log10(IC50) of 1.52

In plain terms, CN(C)CCOc1ccc(Nc2ncc3c(n2)N(C2CCCC2)C2(CCNC2=O)C3)cc1 (stereo not shown) has a documented log10(IC50) of -0.20

In plain terms, CN1C(=O)CC2(Cc3cnc(Nc4ccc(N5CCNCC5)c(F)c4)nc3N2C2CCCC2)C1=O (stereo not shown) has a documented log10(IC50) of 1.07
